The reported measurements were obtained from patent US10259843B2.

For each record, write down the corresponding Ki.
- STUDY SYSTEM: kappa opioid receptor (KOR) (Homo sapiens, UniProt P41145)
- Sequence (P41145 whole entry): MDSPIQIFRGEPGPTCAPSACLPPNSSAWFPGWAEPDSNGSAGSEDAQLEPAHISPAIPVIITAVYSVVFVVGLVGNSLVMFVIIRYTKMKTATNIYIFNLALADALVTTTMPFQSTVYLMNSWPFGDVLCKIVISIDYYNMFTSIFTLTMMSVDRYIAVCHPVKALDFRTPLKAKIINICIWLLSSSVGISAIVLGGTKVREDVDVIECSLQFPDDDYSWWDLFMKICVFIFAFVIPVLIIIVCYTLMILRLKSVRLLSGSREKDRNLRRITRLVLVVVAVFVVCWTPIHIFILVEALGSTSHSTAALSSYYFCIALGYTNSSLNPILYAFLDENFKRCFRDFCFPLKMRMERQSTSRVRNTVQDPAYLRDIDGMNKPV
- ASSAY OVERVIEW: radioligand binding assay, kappa opioid receptor affinity
- ASSAY CONDITIONS: n in parentheses; read-out: Ki (nM ± SEM) KOR
Non-standard residues stand in square brackets, D forms with d. Residues, ends and D or L forms follow the SMILES beside them.

Look at each compound and report its Ki.
1. O=C1N[C@H](Cc2ccccc2)C(=O)N2CCC[C@@H]2C(=O)N[C@H](Cc2ccccc2)C(=O)N[C@H]1Cc1c[nH]c2ccccc12 [JVA 3607, cyclo-[D-Phe-D-Pro-D-Phe-Trp]] (cyclo([dF][dP][dF]W))
2. O=C1N[C@H](Cc2c[nH]c3ccccc23)C(=O)N[C@H](Cc2ccccc2)C(=O)N2CCC[C@@H]2C(=O)N[C@H]1Cc1ccccc1 [JVA 3609, cyclo[D-Phe-D- Pro-Phe-D-Trp]] (cyclo(F[dW][dF][dP]))
3. O=C1N[C@H](Cc2ccccc2)C(=O)N2CCC[C@@H]2C(=O)N[C@@H](Cc2ccccc2)C(=O)N[C@H]1Cc1c[nH]c2ccccc12 [JVA 3605, cyclo[D-Phe-D- Pro-Phe-Trp]] (cyclo([dF][dP]FW))
4. O=C1N[C@@H](Cc2ccccc2)C(=O)N2CCC[C@@H]2C(=O)N[C@H](Cc2ccccc2)C(=O)N[C@H]1Cc1c[nH]c2ccccc12 [JVA 3606, cyclo[Phe-D-Pro-D-Phe-Trp]] (cyclo(F[dP][dF]W))

1. 2560 nM
2. > 10000 nM
3. 5120 nM
4. 362 nM

Look at each compound and report its Ki.
1. O=C1N[C@H](Cc2ccccc2)C(=O)N[C@H](Cc2c[nH]c3ccccc23)C(=O)N[C@@H](Cc2ccccc2)C(=O)N2CCC[C@H]12 [JVA 3608, cyclo[Phe-D-Pro-D-Phe-D-Trp]] (cyclo(F[dP][dF][dW]))
2. O=C1N[C@H](Cc2ccccc2)C(=O)N[C@H](Cc2c[nH]c3ccccc23)C(=O)N[C@H](Cc2ccccc2)C(=O)N2CCC[C@H]12 [JVA 3613, cyclo[D-Phe-D-Pro-D-Phe-D-Trp]] (cyclo([dF][dP][dF][dW]))

1. 353 nM
2. 2010 nM

---

- ASSAY OVERVIEW: locomotion (CLAMS)
- Type: in vivo
- ASSAY CONDITIONS: 10 mg/kg, p.o.
Non-standard residues stand in square brackets, D forms with d. Residues, ends and D or L forms follow the SMILES beside them.

MOLECULE	Locomotion (CLAMS, 10 mg/kg, p.o.)
O=C1N[C@@H](Cc2ccccc2)C(=O)N2CCC[C@@H]2C(=O)N[C@H](Cc2ccccc2)C(=O)N[C@H]1Cc1c[nH]c2ccccc12 [JVA 3606, cyclo[Phe-D-Pro-D-Phe-Trp]] (cyclo(F[dP][dF]W))	Sig. hypo-
O=C1N[C@H](Cc2c[nH]c3ccccc23)C(=O)N[C@H](Cc2ccccc2)C(=O)N2CCC[C@@H]2C(=O)N[C@H]1Cc1ccccc1 [JVA 3609, cyclo[D-Phe-D- Pro-Phe-D-Trp]] (cyclo(F[dW][dF][dP]))	Sig. hypo-

---

- Tested on: opioid receptors (KOR, MOR, DOR)
- ASSAY OVERVIEW: mouse 55° C. warm water tail withdrawal assay, opioid antagonist activity
- Assay type: in vivo
- ASSAY CONDITIONS: 30 nmol
Non-standard residues stand in square brackets, D forms with d. Residues, ends and D or L forms follow the SMILES beside them.

COMPOUND	STUDY SYSTEM	Antagonism (dose, nmol)
O=C1N[C@H](Cc2c[nH]c3ccccc23)C(=O)N[C@H](Cc2ccccc2)C(=O)N2CCC[C@@H]2C(=O)N[C@H]1Cc1ccccc1 [JVA 3609, cyclo[D-Phe-D- Pro-Phe-D-Trp]] (cyclo(F[dW][dF][dP]))	opioid receptors (KOR, MOR, DOR)	None (30)
O=C1N[C@H](Cc2ccccc2)C(=O)N2CCC[C@@H]2C(=O)N[C@H](Cc2ccccc2)C(=O)N[C@H]1Cc1c[nH]c2ccccc12 [JVA 3607, cyclo-[D-Phe-D-Pro-D-Phe-Trp]] (cyclo([dF][dP][dF]W))	opioid receptors (KOR, MOR, DOR)	None (30)

---

- ASSAY OVERVIEW: locomotion (CLAMS)
- Assay type: in vivo
- Set-up: key: ✓ indicates tested (if no other comment then no significant effect)
- ASSAY CONDITIONS: 10 mg/kg, p.o.
Non-standard residues stand in square brackets, D forms with d. Residues, ends and D or L forms follow the SMILES beside them.

MOLECULE	Locomotion (CLAMS, 10 mg/kg, p.o.)
O=C1N[C@H](Cc2ccccc2)C(=O)N2CCC[C@@H]2C(=O)N[C@@H](Cc2ccccc2)C(=O)N[C@H]1Cc1c[nH]c2ccccc12 [JVA 3605, cyclo[D-Phe-D- Pro-Phe-Trp]] (cyclo([dF][dP]FW))	✓
O=C1N[C@H](Cc2ccccc2)C(=O)N2CCC[C@@H]2C(=O)N[C@H](Cc2ccccc2)C(=O)N[C@H]1Cc1c[nH]c2ccccc12 [JVA 3607, cyclo-[D-Phe-D-Pro-D-Phe-Trp]] (cyclo([dF][dP][dF]W))	✓
O=C1N[C@H](Cc2ccccc2)C(=O)N[C@H](Cc2c[nH]c3ccccc23)C(=O)N[C@H](Cc2ccccc2)C(=O)N2CCC[C@H]12 [JVA 3613, cyclo[D-Phe-D-Pro-D-Phe-D-Trp]] (cyclo([dF][dP][dF][dW]))	✓

---

- ASSAY OVERVIEW: mouse 55° C. warm water tail withdrawal assay, antinociception
- Format: in vivo
- ASSAY CONDITIONS: antinociception, i.c.v.
Non-standard residues stand in square brackets, D forms with d. Residues, ends and D or L forms follow the SMILES beside them.
VALUE TYPE: ED50 (95% CI) i.c.v. (nmol)
Answers are plain numbers, in nmol.

COMPOUND	ED50 (95% CI) i.c.v., nmol
O=C1N[C@@H](Cc2ccccc2)C(=O)N2CCC[C@@H]2C(=O)N[C@@H](Cc2ccccc2)C(=O)N[C@H]1Cc1c[nH]c2ccccc12 [JVA 2801, cyclo[Phe-D-Pro-Phe-Trp], reference compound] (cyclo(FWF[dP]))	1.74

Look at each compound and report its ED50 (95% CI) i.c.v..
1. O=C1N[C@H](Cc2c[nH]c3ccccc23)C(=O)N[C@H](Cc2ccccc2)C(=O)N2CCC[C@@H]2C(=O)N[C@H]1Cc1ccccc1 [JVA 3609, cyclo[D-Phe-D- Pro-Phe-D-Trp]] (cyclo(F[dW][dF][dP]))
2. O=C1N[C@H](Cc2ccccc2)C(=O)N[C@H](Cc2c[nH]c3ccccc23)C(=O)N[C@@H](Cc2ccccc2)C(=O)N2CCC[C@H]12 [JVA 3608, cyclo[Phe-D-Pro-D-Phe-D-Trp]] (cyclo(F[dP][dF][dW]))
3. O=C1N[C@H](Cc2ccccc2)C(=O)N[C@H](Cc2c[nH]c3ccccc23)C(=O)N[C@H](Cc2ccccc2)C(=O)N2CCC[C@H]12 [JVA 3613, cyclo[D-Phe-D-Pro-D-Phe-D-Trp]] (cyclo([dF][dP][dF][dW]))
4. O=C1N[C@H](Cc2ccccc2)C(=O)N2CCC[C@@H]2C(=O)N[C@H](Cc2ccccc2)C(=O)N[C@H]1Cc1c[nH]c2ccccc12 [JVA 3607, cyclo-[D-Phe-D-Pro-D-Phe-Trp]] (cyclo([dF][dP][dF]W))
5. O=C1N[C@H](Cc2ccccc2)C(=O)N2CCC[C@@H]2C(=O)N[C@@H](Cc2ccccc2)C(=O)N[C@H]1Cc1c[nH]c2ccccc12 [JVA 3605, cyclo[D-Phe-D- Pro-Phe-Trp]] (cyclo([dF][dP]FW))

1. 2.39
2. 0.56
3. 0.51
4. 1.00
5. 0.75

---

- STUDY SYSTEM: delta opioid receptor (DOR) (Homo sapiens, UniProt P41143)
- Sequence (P41143 whole entry): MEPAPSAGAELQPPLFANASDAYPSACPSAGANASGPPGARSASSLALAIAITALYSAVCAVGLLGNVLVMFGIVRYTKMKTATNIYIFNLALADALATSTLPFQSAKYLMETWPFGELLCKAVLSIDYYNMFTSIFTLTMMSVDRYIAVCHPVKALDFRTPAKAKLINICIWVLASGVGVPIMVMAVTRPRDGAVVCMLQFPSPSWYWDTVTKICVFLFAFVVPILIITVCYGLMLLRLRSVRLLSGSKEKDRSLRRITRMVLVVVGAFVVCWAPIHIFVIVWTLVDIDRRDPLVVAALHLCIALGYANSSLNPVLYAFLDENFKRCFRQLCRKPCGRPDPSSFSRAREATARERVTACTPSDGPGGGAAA
- ASSAY OVERVIEW: radioligand binding assay, delta opioid receptor affinity
- ASSAY CONDITIONS: n in parentheses; read-out: Ki (nM ± SEM) DOR
Non-standard residues stand in square brackets, D forms with d. Residues, ends and D or L forms follow the SMILES beside them.
For each record, write down the corresponding Ki.

Study these solved cases before continuing.
COMPOUND	Ki
O=C1N[C@H](Cc2c[nH]c3ccccc23)C(=O)N[C@@H](Cc2ccccc2)C(=O)N2CCC[C@@H]2C(=O)N[C@H]1Cc1ccccc1 [JVA 2802, cyclo[Phe-D-Pro-Phe-D-Trp], reference compound] (cyclo(F[dP]F[dW]))	4190 nM
O=C1N[C@H](Cc2c[nH]c3ccccc23)C(=O)N[C@H](Cc2ccccc2)C(=O)N2CCC[C@@H]2C(=O)N[C@H]1Cc1ccccc1 [JVA 3609, cyclo[D-Phe-D- Pro-Phe-D-Trp]] (cyclo(F[dW][dF][dP]))	> 10000 nM
O=C1N[C@@H](Cc2ccccc2)C(=O)N2CCC[C@@H]2C(=O)N[C@@H](Cc2ccccc2)C(=O)N[C@H]1Cc1c[nH]c2ccccc12 [JVA 2801, cyclo[Phe-D-Pro-Phe-Trp], reference compound] (cyclo(FWF[dP]))	1720 nM
O=C1N[C@H](Cc2ccccc2)C(=O)N[C@H](Cc2c[nH]c3ccccc23)C(=O)N[C@H](Cc2ccccc2)C(=O)N2CCC[C@H]12 [JVA 3613, cyclo[D-Phe-D-Pro-D-Phe-D-Trp]] (cyclo([dF][dP][dF][dW]))	> 10000 nM
O=C1N[C@H](Cc2ccccc2)C(=O)N2CCC[C@@H]2C(=O)N[C@@H](Cc2ccccc2)C(=O)N[C@H]1Cc1c[nH]c2ccccc12 [JVA 3605, cyclo[D-Phe-D- Pro-Phe-Trp]] (cyclo([dF][dP]FW))	> 10000 nM

Look at each compound and report its Ki.
1. O=C1N[C@H](Cc2ccccc2)C(=O)N[C@H](Cc2c[nH]c3ccccc23)C(=O)N[C@@H](Cc2ccccc2)C(=O)N2CCC[C@H]12 [JVA 3608, cyclo[Phe-D-Pro-D-Phe-D-Trp]] (cyclo(F[dP][dF][dW]))
2. O=C1N[C@@H](Cc2ccccc2)C(=O)N2CCC[C@@H]2C(=O)N[C@H](Cc2ccccc2)C(=O)N[C@H]1Cc1c[nH]c2ccccc12 [JVA 3606, cyclo[Phe-D-Pro-D-Phe-Trp]] (cyclo(F[dP][dF]W))
3. O=C1N[C@H](Cc2ccccc2)C(=O)N2CCC[C@@H]2C(=O)N[C@H](Cc2ccccc2)C(=O)N[C@H]1Cc1c[nH]c2ccccc12 [JVA 3607, cyclo-[D-Phe-D-Pro-D-Phe-Trp]] (cyclo([dF][dP][dF]W))

["> 10000 nM", "> 10000 nM", "> 10000 nM"]
